# System: erythropoietin
# EXPERIMENTAL PROTOCOL: In vitro erythropoietin induction (ELISA of cell culture supernatant)
# PARTICULARS: Homo sapiens, Hep3B, 16 h, read-out: EPO fold induction, Hep3B cell line, 200 uM, 16 hours, relative to vehicle control
ENDPOINT: fold induction at 200 µM

In [3]: df
Out[3]:
                                   molecule     test_target                  endpoint  reported_result
0  CC1(C)CCc2c(sc3nc(O)c(C(=O)N[C@H](C(=O)O)c4ccccc4)c(=O)n23)C1  erythropoietin  fold induction at 200 µM              < 2
1  O=C(O)CNC(=O)c1c(O)nc2sc3c(n2c1=O)CCC(C(=O)O)C3 (centres unmarked)  erythropoietin  fold induction at 200 µM              < 2
2  O=C(O)CNC(=O)c1c(O)nc2sc3c(n2c1=O)CCN(C(=O)c1ccc(F)cc1)C3  erythropoietin  fold induction at 200 µM           5 to 8
3  O=C(O)CNC(=O)c1c(O)nc2sc3c(n2c1=O)CCN(C(=O)c1ccc(Cl)nc1)C3  erythropoietin  fold induction at 200 µM           2 to 4
4  O=C(NC1(C(=O)O)CCCC1)c1c(O)nc2sc3c(n2c1=O)CCCC3  erythropoietin  fold induction at 200 µM              < 2
5  CC(C)CC(=O)N1CCc2c(sc3nc(O)c(C(=O)NCC(=O)O)c(=O)n23)C1  erythropoietin  fold induction at 200 µM           2 to 4
6  O=C(O)CNC(=O)c1c(O)nc2sc3c(n2c1=O)CCN(S(=O)(=O)c1ccc(OC(F)(F)F)cc1)C3  erythropoietin  fold induction at 200 µM           2 to 4
7  CCOC(=O)N1CCc2c(sc3nc(O)c(C(=O)NCC(=O)O)c(=O)n23)C1  erythropoietin  fold induction at 200 µM           5 to 8

* * *

# Tested on: erythropoietin
# EXPERIMENTAL PROTOCOL: In vitro erythropoietin induction (ELISA of cell culture supernatant)
# PARTICULARS: Homo sapiens, Hep3B, 16 h, read-out: EPO fold induction, Hep3B cell line, 200 uM, 16 hours, relative to vehicle control
Entries and their measured fold induction at 200 µM follow.
ENDPOINT: fold induction at 200 µM

>>> df
                                    molecule     test_target  reported_result
 0  O=C(O)CNC(=O)c1c(O)nc2sc3c(n2c1=O)CCN(C(=S)Nc1ccc(F)cc1)C3  erythropoietin           5 to 8
 1  CS(=O)(=O)N1CCc2c(sc3nc(O)c(C(=O)NCC(=O)O)c(=O)n23)C1  erythropoietin           2 to 4
 2  CC1CCc2c(sc3nc(O)c(C(=O)NCC(=O)O)c(=O)n23)C1 (centres unmarked)  erythropoietin           5 to 8
 3   O=C(O)CNC(=O)c1c(O)nc2sc3c(n2c1=O)CCOC3  erythropoietin           5 to 8
 4  CS(=O)(=O)c1ccc(C(=O)N2CCc3c(sc4nc(O)c(C(=O)NCC(=O)O)c(=O)n34)C2)cc1  erythropoietin           5 to 8
 5  CCC1(CC)CCc2c(sc3nc(O)c(C(=O)NCC(=O)O)c(=O)n23)C1  erythropoietin              < 2
 6  O=C(O)CNC(=O)c1c(O)nc2sc3c(n2c1=O)CCC1(CC1)C3  erythropoietin           2 to 4
 7  CC(C)(C)C1CCc2c(sc3nc(O)c(C(=O)NCC(=O)O)c(=O)n23)C1 (centres unmarked)  erythropoietin              < 2
 8  CC(NC(=O)c1c(O)nc2sc3c(n2c1=O)CCCCC3)C(=O)O (centres unmarked)  erythropoietin          9 to 16
 9   O=C(O)CCNC(=O)c1c(O)nc2sc3c(n2c1=O)CCC3  erythropoietin           2 to 4
10  O=C(O)CNC(=O)c1c(O)nc2sc3c(n2c1=O)CCC(c1ccccc1)C3 (centres unmarked)  erythropoietin              < 2
11  O=C(O)CNC(=O)c1c(O)nc2sc3c(n2c1=O)CCN(C(=O)CC1CC1)C3  erythropoietin          9 to 16
12  O=C(O)CNC(=O)c1c(O)nc2sc3c(n2c1=O)CCN(C(=O)OCc1ccccc1)C3  erythropoietin          9 to 16
13  CCCC1CCc2c(sc3nc(O)c(C(=O)NCC(=O)O)c(=O)n23)C1 (centres unmarked)  erythropoietin              < 2
14  O=C(O)CNC(=O)c1c(O)nc2sc3c(n2c1=O)CCN(c1ccc(Cl)nn1)C3  erythropoietin              < 2
15  O=C(O)CNC(=O)c1c(O)nc2sc3c(n2c1=O)CCC(NC(=O)c1ccccc1)C3 (centres unmarked)  erythropoietin              < 2
16  O=C(O)CNC(=O)c1c(O)nc2sc3c(n2c1=O)CCN(S(=O)(=O)c1ccc(Cl)s1)C3  erythropoietin           2 to 4
